Lab note: HepSE_bilirubinemia readings collected with Hepatotoxicity for the following compounds.
API doc: respond with a numeric literal and nothing else, no unit.

compound: CCCOc1ccc(C(=O)OCCN(CC)CC)cc1N
HepSE_bilirubinemia: 0

HepSE_bilirubinemia value, target or system Hepatotoxicity, for CC(C)CN(C[C@@H](OP(=O)(O)O)[C@H](Cc1ccccc1)NC(=O)O[C@H]1CCOC1)S(=O)(=O)c1ccc(N)cc1 : 0

CC(C)(C)NC[C@H](O)COc1nsnc1N1CCOCC1 tested on Hepatotoxicity gave HepSE_bilirubinemia: 0

HepSE_bilirubinemia value, target or system Hepatotoxicity, for Cc1nc2n(c(=O)c1CCN1CCC(c3noc4cc(F)ccc34)CC1)CCCC2 : 1

Test item CC(=O)N[C@@H](CS)C(=O)O ; Hepatotoxicity; reported HepSE_bilirubinemia was 0

Measured HepSE_bilirubinemia (Hepatotoxicity), entry Nc1ncnc2c1ncn2[C@@H]1O[C@H](CO)[C@@H](O)[C@H]1O : 0

Record COC(=O)[C@H]1[C@H]2C[C@@H]3c4[nH]c5cc(OC)ccc5c4CCN3C[C@H]2C[C@@H](OC(=O)c2cc(OC)c(OC)c(OC)c2)[C@@H]1OC / Hepatotoxicity, HepSE_bilirubinemia recorded as 0

So the reported HepSE_bilirubinemia for NCCCC(=O)O , on Hepatotoxicity, turned out to be 0

Hepatotoxicity HepSE_bilirubinemia of CC(CN(C)C)CN1c2ccccc2CCc2ccccc21 (centres undefined) is 0

###

Heads up, these compounds all have HepSE_cholelithiasis values measured for Hepatotoxicity.
Please respond with just the number, no unit label.

compound: O=P1(NCCCl)OCCCN1CCCl (centres undefined) [IFOSFAMIDE]
HepSE_cholelithiasis: 0
--
compound: CN1CCN(CCCN2c3ccccc3Sc3ccc(Cl)cc32)CC1
HepSE_cholelithiasis: 0
--
compound: O=C1CC2(CCCC2)CC(=O)N1CCCCN1CCN(c2ncccn2)CC1
HepSE_cholelithiasis: 0
--
compound: CC(C)NCC(O)COc1ccc(COCCOC(C)C)cc1 (centres undefined)
HepSE_cholelithiasis: 0

Entry Cc1ccccc1C(OCCN(C)C)c1ccccc1 (centres undefined) ; HepSE_cholelithiasis = 0

For reference, reported HepSE_cholelithiasis for COC(=O)[C@H]1[C@H]2C[C@@H]3c4[nH]c5cc(OC)ccc5c4CCN3C[C@H]2C[C@@H](OC(=O)c2cc(OC)c(OC)c(OC)c2)[C@@H]1OC stands at 0

Field HepSE_cholelithiasis (entry Cc1cn[nH]c1 [FOMEPIZOLE] ) reads 0

According to the records, this compound NC(=O)C[S+]([O-])C(c1ccccc1)c1ccccc1 (centres undefined) displays HepSE_cholelithiasis of 0

Recorded result, CCC1=C[C@@H]2CN(C1)Cc1c([nH]c3ccccc13)[C@@](C(=O)OC)(c1cc3c(cc1OC)N(C)[C@H]1[C@@](O)(C(=O)OC)[C@H](OC(C)=O)[C@]4(CC)C=CCN5CC[C@]31[C@@H]54)C2 , HepSE_cholelithiasis: 0

HepSE_cholelithiasis for CC(C)OC(=O)C(C)(C)Oc1ccc(C(=O)c2ccc(Cl)cc2)cc1 [FENOFIBRATE] is 1

Short answer for CCCN1CCCC[C@H]1C(=O)Nc1c(C)cccc1C : HepSE_cholelithiasis was 0

Item: CC12CC3CC(C)(C1)CC(N)(C3)C2 [MEMANTINE] | HepSE_cholelithiasis: 1

###

This listing pairs molecules with measured HepSE_liver fatty.
# System: Hepatotoxicity
# appliedConditions: Liver

Guide cases for HepSE_liver fatty, answers given:
molecule: OCC(S)CS (stereo unspecified) [DIMERCAPROL]
parameterMeasured: HepSE_liver fatty
result: 0

molecule: CC1=C(C(=O)O)N2C(=O)[C@@H](NC(=O)[C@H](N)c3ccccc3)[C@H]2SC1 [CEPHALEXIN ANHYDROUS]
parameterMeasured: HepSE_liver fatty
result: 0

molecule: Nc1c2c(nc3ccccc13)CCCC2 [TACRINE]
parameterMeasured: HepSE_liver fatty
result: 0

Quick note, HepSE_liver fatty for COc1ccc2cc([C@H](C)C(=O)O)ccc2c1 [NAPROXEN] landed at 0

###

Below are compounds with their HepSE_hepatic necrosis as measured on Hepatotoxicity.
A bare number is all that is needed in reply.

compound: C[C@@H]1C[C@H]2[C@@H]3C[C@H](F)C4=CC(=O)C=C[C@]4(C)[C@@]3(F)[C@@H](O)C[C@]2(C)[C@@]1(O)C(=O)CO
HepSE_hepatic necrosis: 0

compound: C[C@@H]1O[C@@H]1P(=O)(O)O
HepSE_hepatic necrosis: 1

compound: Cc1onc(-c2ccccc2)c1-c1ccc(S(N)(=O)=O)cc1
HepSE_hepatic necrosis: 0

compound: CC(C)N1CCN(c2ccc(OCC3COC(Cn4cncn4)(c4ccc(Cl)cc4Cl)O3)cc2)CC1 (stereo not drawn)
HepSE_hepatic necrosis: 0

compound: O=C(O)CCNC(=O)c1ccc(/N=N/c2ccc(O)c(C(=O)O)c2)cc1 [BALSALAZIDE]
HepSE_hepatic necrosis: 1

COc1ccc2cc(CCC(C)=O)ccc2c1 tested on Hepatotoxicity gave HepSE_hepatic necrosis: 0

Recorded HepSE_hepatic necrosis for COc1cc(CC2c3c(cc(OC)c(OC)c3OC)CC[N+]2(C)CCCOC(=O)CCC(=O)OCCC[N+]2(C)CCc3cc(OC)c(OC)c(OC)c3C2Cc2cc(OC)c(OC)c(OC)c2)cc(OC)c1OC (stereo not drawn) on Hepatotoxicity was 0

Lab note: compound C#CC1(O)CCC2C3CCC4=CC(=O)CCC4C3C(=C)CC21CC (stereo not drawn) tested on Hepatotoxicity; recorded HepSE_hepatic necrosis was 0

###

# Test system: Hepatotoxicity
parameterMeasured: HepSE_hepatitis
Respond numerically, and do not add a unit to the figure.

# example entries with known answers
compound: O=C(CO)[C@@H](O)[C@@H](O)COP(=O)(O)O
HepSE_hepatitis: 0

compound: COCCCOc1ccnc(C[S+]([O-])c2nc3ccccc3[nH]2)c1C (stereo not given)
HepSE_hepatitis: 1

compound: CCN(CC)CC#CCOC(=O)C(O)(c1ccccc1)C1CCCCC1 (stereo not given)
HepSE_hepatitis: 0

compound: CN(C)CCCN1c2ccccc2Sc2ccc(Cl)cc21
HepSE_hepatitis: 0

compound: CN(C)S(=O)(=O)c1ccc2c(c1)N(CCCN1CCC(CCO)CC1)c1ccccc1S2
HepSE_hepatitis: 0

Record CCN(Cc1ccncc1)C(=O)C(CO)c1ccccc1 (stereo not given) [TROPICAMIDE] / Hepatotoxicity, HepSE_hepatitis recorded as 0

Bench note, Hepatotoxicity: O=C1CC[C@@]2(O)[C@H]3Cc4ccc(O)c5c4[C@@]2(CCN3CC2CC2)[C@H]1O5 [NALTREXONE] , HepSE_hepatitis reads 1

Record Clc1ccc(COC(Cn2ccnc2)c2ccc(Cl)cc2Cl)c(Cl)c1 (stereo not given) / Hepatotoxicity, HepSE_hepatitis recorded as 0

Item: FC(F)OC(Cl)C(F)(F)F (stereo not given) | System: Hepatotoxicity | HepSE_hepatitis: 1

Noted HepSE_hepatitis for CC[C@@H](CO)NC(=O)[C@@H]1C=C2c3cccc4c3c(cn4C)C[C@H]2N(C)C1 [METHYSERGIDE] , tested on Hepatotoxicity: 0

###

# Tested on: Hepatotoxicity
# appliedConditions: Liver
parameterMeasured: HepSE_hepatic failure

Below, each entry is followed by its recorded HepSE_hepatic failure result.
molecule: Cc1cccc([C@H](C)c2cnc[nH]2)c1C
HepSE_hepatic failure: 0

molecule: Nc1nc(=O)n([C@@H]2CS[C@H](CO)O2)cc1F
HepSE_hepatic failure: 0

Proceeding to the next molecule to report its HepSE_hepatic failure.
Noted for CC(=O)[O-].[Na+] [SODIUM ACETATE] : its HepSE_hepatic failure reads 0

###

Quick record of HepSE_liver function tests abnormal values for Hepatotoxicity.
Could you respond with only the numeric value?

See these solved cases before continuing.
molecule: CCCCC(C)(O)C/C=C/[C@H]1[C@H](O)CC(=O)[C@@H]1CCCCCCC(=O)OC (some centres not stated)
HepSE_liver function tests abnormal: 0
//
molecule: CC(C)(C)NCC(O)COc1cccc2c1CC(O)C(O)C2 (configuration not stated)
HepSE_liver function tests abnormal: 0
//
molecule: CCCNC(=O)NS(=O)(=O)c1ccc(Cl)cc1 [CHLORPROPAMIDE]
HepSE_liver function tests abnormal: 0
//
molecule: CN(C)C(=O)Oc1ccc[n+](C)c1
HepSE_liver function tests abnormal: 0
//
molecule: CO[C@H]1/C=C/O[C@@]2(C)Oc3c(C)c(O)c4c(O)c(c(/C=N/N5CCN(C6CCCC6)CC5)c(O)c4c3C2=O)NC(=O)/C(C)=C\C=C\[C@H](C)[C@H](O)[C@@H](C)[C@@H](O)[C@@H](C)[C@H](OC(C)=O)[C@@H]1C
HepSE_liver function tests abnormal: 0

As a next step, examine the molecule that follows.
The molecule CCc1c2c(nc3ccc(OC(=O)N4CCC(N5CCCCC5)CC4)cc13)-c1cc3c(c(=O)n1C2)COC(=O)[C@]3(O)CC on Hepatotoxicity: HepSE_liver function tests abnormal was 0
